Origin of the recorded values: patent US4861771A

test: plasma fenoldopam levels in dogs; assay type: in vivo, female mongrel dogs; details: dog, plasma; after oral administration of fenoldopam, dogs
ASSAY_METRIC: half-life (min)
Quick reminder: number only, in min, skip the unit.

For record Oc1ccc(C2CNCCc3c2cc(O)c(O)c3Cl)cc1 (stereo not shown) the listed half-life is 12
